These entries and their values trace back to PubChem BioAssay (NCATS).

Tested on: MKL-1
PROCEDURE SUMMARY: qHTS assay to identify novel small-molecules to repurpose for Merkel cell carcinoma treatment (AID 1296009); note: nearly all actives have a fitted effect of over 60% in size; note: potency is the fitted concentration of half-maximal effect
MEASUREMENT SETUP: MCC and control cell lines, CellTiter-Glo viability, 72 h; series mostly up to 46 µM
Records with an inconclusive call do not appear. Activity calls are given as the source filed them. Calls come from the whole dose curve; as a rule, active = well fitted inhibition curve with a large enough effect; inconclusive = small, poorly fitted or top-dose-only effect; inactive = flat fitted curve, though single readings scatter.
MEASURE: Potency

* CCO[C@H]1O[C@@H]2OC3(C)CC[C@H]4[C@H](C)CC[C@@H]([C@H]1C)[C@@]24OO3 | inactive
* C[C@H]1CNCCc2ccc(Cl)cc21 | inactive
* CCOP(=S)(OCC)O/N=C(\C#N)c1ccccc1 | inactive
* COP(=S)(OC)Oc1ccc(S(N)(=O)=O)cc1 | inactive
* CCCCCCCCCCCC[N+](C)(C)CCOc1ccccc1 | 2.66 µM (active)
* CCOC(=O)NC(O)C(Cl)(Cl)Cl (stereo unspecified) | inactive

* * *

MEASUREMENT SETUP: Ebola virus entry assay, ratio channel
Active and inactive are the calls of the source.
Classes used: active, inactive

- COc1ccc(OC(=O)N(CC(=O)O)Cc2ccc(OCCc3nc(-c4ccccc4)oc3C)cc2)cc1: inactive
- O=C(O)c1ccccc1Nc1cc(Cl)ccc1C(=O)O: inactive
- O=Cc1ccc(O)c(O)c1O: inactive
- COc1cc(C(=O)NCCCCCC(=O)O)cc(OC)c1OC: inactive
- CCOC(=O)c1cccc(N)c1: inactive
- CC(NCCC(c1ccccc1)c1ccccc1)c1ccccc1 (stereo not drawn): active
- OC(c1ccccc1)(c1ccccc1)C1CCNCC1: active
- CC1N=C(N)OC1c1ccccc1 (stereo not drawn): inactive
- C[N+](C)(C)CCOC(=O)CCC(=O)OCC[N+](C)(C)C: inactive
- NC(=O)NNc1ccccc1: inactive
- C#CCN(C)CCCOc1ccc(Cl)cc1Cl: inactive
- CC(C)C(=O)OCc1cccc(OC(=O)[C@@H]2N3C(=O)[C@@H](NC(=O)Cc4ccccc4)[C@H]3SC2(C)C)c1: inactive
- CNC(C)Cc1ccccc1OC (stereo not drawn): inactive
- Oc1ccc2[nH]cc(CCCCN3CC=C(c4ccccc4)CC3)c2c1: active
- COC(=O)[C@H]1[C@H]2C[C@@H]3c4[nH]c5cc(OC)ccc5c4CCN3C[C@H]2C[C@@H](OC(=O)/C=C/c2ccc(O)c(OC)c2)[C@@H]1OC: active
- Cc1nnc(C(=O)NC(C)(C)c2nc(C(=O)NCc3ccc(F)cc3)c(O)c(=O)n2C)o1: inactive
- OCC(CO)N[C@H]1C[C@](O)(CO)[C@@H](O)[C@H](O)[C@H]1O: inactive
- Cc1ccc(S(=O)(=O)NC(=O)NC2CCCC2)cc1: inactive
- C[C@@]12CCC[C@H]1[C@@H]1CC[C@H]3C[C@@H](O)CC[C@]3(C)[C@H]1CC2: inactive
- O=C(Nc1ccccc1)OCC(CN1CCCCC1)OC(=O)Nc1ccccc1 (stereo not drawn): active
- CCOC(CN1CCN(CC(C)C(=O)c2ccccc2)CC1)c1ccccc1 (stereo not drawn): active
- C=C1C[C@H]2[C@@H]3C=C(C)C4=CC(=O)CC[C@]4(C)[C@H]3CC[C@]2(C)[C@@]1(OC(C)=O)C(C)=O: inactive
- CN1CCCN=C1/C=C/c1cccs1: inactive

* * *

MEASURED ON: Nucleoprotein (Lymphocytic choriomeningitis virus (strain Armstrong)) (UniProt P09992)
Sequence (P09992 whole entry, looked up): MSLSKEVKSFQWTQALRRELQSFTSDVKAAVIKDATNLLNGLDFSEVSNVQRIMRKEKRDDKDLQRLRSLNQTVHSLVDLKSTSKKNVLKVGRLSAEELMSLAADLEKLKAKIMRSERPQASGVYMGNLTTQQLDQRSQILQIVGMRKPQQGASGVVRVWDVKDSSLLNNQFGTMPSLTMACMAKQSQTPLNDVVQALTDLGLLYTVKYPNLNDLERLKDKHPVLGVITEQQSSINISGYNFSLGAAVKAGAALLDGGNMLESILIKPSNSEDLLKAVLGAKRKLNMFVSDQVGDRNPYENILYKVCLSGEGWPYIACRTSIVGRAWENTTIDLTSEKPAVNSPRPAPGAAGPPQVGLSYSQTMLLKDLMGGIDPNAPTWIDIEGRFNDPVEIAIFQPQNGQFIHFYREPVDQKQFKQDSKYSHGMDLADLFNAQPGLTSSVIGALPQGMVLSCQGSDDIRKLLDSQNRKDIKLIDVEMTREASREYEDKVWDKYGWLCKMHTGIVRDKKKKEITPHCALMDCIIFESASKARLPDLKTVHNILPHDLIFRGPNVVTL
PROCEDURE SUMMARY: qHTS for Inhibitors of the Functional Ribonucleoprotein Complex (vRNP) of Lymphocytic Choriomeningitis Arenaviruses (LCMV): LCMV Primary Screen - GLuc reporter signal (AID 1347086); note: nearly all actives have a fitted effect of over 70% in size
MEASUREMENT SETUP: LCMV minigenome vRNP cell assay, Gaussia luciferase reporter; series mostly up to 57.5 µM
Results filed as inconclusive are left out. Active and inactive are the calls of the source. Calls follow the shape of the full dose curve.
Classes used: y (active), n (inactive)

* CN(C)CCCO[C@@H]1[C@H]2OC(C)(C)O[C@H]2O[C@@H]1C(O)CO (stereo partly specified) | n
* CC(C)C(=O)Nc1cccc(C2CN3CCSC3=N2)c1 (stereo unspecified) | n
* O=C1NCN(c2ccccc2)C12CCN(CCCOc1ccc(F)cc1)CC2 | n
* Cc1cc(O)c(C)c(C)c1O | n
* CCS(=O)(=O)C(C)(C)S(=O)(=O)CC | n
* Cc1nc2sccn2c(=O)c1CCN1CCC(=C(c2ccc(F)cc2)c2ccc(F)cc2)CC1 | n
* O=C(CCCCC(=O)Nc1c(I)cc(I)c(C(=O)O)c1I)Nc1c(I)cc(I)c(C(=O)O)c1I | n
* OCC(O)CS (stereo unspecified) | n
* CC(C)=C[C@@H]1[C@@H](C(=O)OCc2coc(Cc3ccccc3)c2)C1(C)C | n
* C=C1C[C@H]2[C@@H]3C=C(C)C4=CC(=O)CC[C@]4(C)[C@H]3CC[C@]2(C)[C@@]1(OC(C)=O)C(C)=O | n
* O=C(N[C@H]1N=C(c2ccccc2F)c2cccc3c2N(CC3)C1=O)c1cc2ccccc2[nH]1 | n
* O=C(NN1CCCC1)NS(=O)(=O)c1ccc(Cl)cc1 | n
* CCc1cc(Cl)c(OC)c(C(=O)NC[C@@H]2CCCN2CC)c1O | n
* CC(O)COc1ccccc1 (stereo unspecified) | n
* O=C(O)c1cccnc1Nc1cccc(C(F)(F)F)c1 | n
* C[C@@H]1C[C@@H]([C@H](O)CC2CC(=O)NC(=O)C2)C(=O)[C@@H](C)C1 | y
* OCCN1CCN(CCCN2c3ccccc3C=Cc3ccccc32)CC1 | n
* C[C@]12CCC(=O)C=C1CC[C@@H]1[C@@H]2CC[C@@]2(C)[C@H]1CC[C@]2(O)C(=O)CO | n
* CC(C)(C)C(=O)OCOC(=O)C1N2C(=O)CC2S(=O)(=O)C1(C)C (stereo unspecified) | n
* CO/N=C(/C(=O)N[C@@H]1C(=O)N2C(C(=O)O)=C(Cn3nnc(C)n3)CS[C@H]12)c1csc(N)n1 | n
* C[C@H]1C[C@H]2[C@@H]3CCC4=CC(=O)C=C[C@]4(C)[C@@]3(Cl)[C@@H](O)C[C@]2(C)[C@@]1(O)C(=O)CO | n

* * *

PROCEDURE SUMMARY: qHTS profiling of the MIPE4 collection as inhibitors of Plasmodium falciparum (DD2) proliferation (Rep 2) (AID 743346)
MEASUREMENT SETUP: P. falciparum Dd2 in erythrocytes, SYBR Green DNA, 72 h; at 28.5 µM (top of the series)
parasite growth, % of control (lower = inhibition): recorded values
MEASURE: parasite growth, % of control (lower = inhibition) (%)

- CCCS(=O)c1ccc2nc(NC(=O)OC)[nH]c2c1 (stereo not drawn): 101
- NC(=O)Cc1cccc(C(=O)c2ccccc2)c1N: 114
- O=C(O)c1nn(Cc2ccc(Cl)cc2Cl)c2ccccc12: 101
- COc1ccc(C(=O)N2CCCC2=O)cc1: 128
- CN(C)[C@@H](CCOc1cccc2ccccc12)c1ccccc1: 31.8
- CCOC(=O)Nc1ccc(NCc2ccc(F)cc2)nc1N: 84.5
- C[C@@H]1C[C@@H]([C@H](O)CC2CC(=O)NC(=O)C2)C(=O)[C@@H](C)C1: 6.94
- COC(=O)C1=CCCN(C)C1: 47.2

* * *

MEASUREMENT SETUP: Ebola virus entry assay, green fluorescence channel
Measured potencies and affinities stand elsewhere.
Rule: efficacy below 40% gives met. Equal to or above 40% gives not met.

* CN(C)CCCOc1nn(Cc2ccccc2)c2ccccc12 | not met
* CCCCNc1ccc(C(=O)OCCN(CC)CC)cc1 | not met
* NC(N)=NC(=O)c1nc(Cl)c(N)nc1N | met
* CCOc1ccc(C(=O)OCCN(CC)CC)cc1 | met
* OC(c1ccccc1)(c1ccccc1)C1CCNCC1 | met
* Clc1ccc(C(OCCN2CCCCC2)c2ccccc2)cc1 (stereo not drawn) | not met
* COc1ccc2cc(C=O)ccc2c1 | met
* O=C(Nc1ccc(C(=O)O)c(O)c1)c1ccccc1 | met
* CC(C)COCC(CN(Cc1ccccc1)c1ccccc1)N1CCCC1 (stereo not drawn) | met
* CC[N+](CC)(CC)CCOc1ccc(/C=C/c2ccccc2)cc1 | not met
* Cn1c(=O)c2c(ncn2CC2OCCO2)n(C)c1=O | met
* C[C@@H]1CN(CCCn2c3ccccc3c3ccccc32)C[C@H](C)N1 | met
* c1cc2c(c(N3CCNCC3)c1)OCCO2 | met

* * *

PROCEDURE SUMMARY: Cell Viability - LYMP2-024 (AID 988);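 note: cells exposed to compound for 24 hr at 37 °C; nearly all actives have a fitted effect of over 60% in size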
MEASUREMENT SETUP: LYMP2-024 lymphoblastoid cell viability; series mostly up to 92.2 µM
Results filed as inconclusive are left out. Calls of active or inactive are those of the source. Calls follow the shape of the dose curve; as a rule, active = well fitted cell-killing curve with a large enough effect; inconclusive = small, poorly fitted or top-dose-only effect; inactive = flat fitted curve, though single readings scatter.
Classes used: active, inactive

• CC[n+]1c(-c2ccccc2)c2cc(N)ccc2c2ccc(N)cc21 = active
• C[C@@H]1C[C@@H]([C@H](O)CC2CC(=O)NC(=O)C2)C(=O)[C@@H](C)C1 = active
• CN(C)C(=S)SSC(=S)N(C)C = active
• CNC(=O)Oc1cccc2ccccc12 = inactive
• Oc1c(Br)cc(Br)cc1Br = inactive
